# key: entry, value: % inhibition Apol 40'
Target: UniProt:Q8ILY1
Sequence (Q8ILY1 entry or part of it): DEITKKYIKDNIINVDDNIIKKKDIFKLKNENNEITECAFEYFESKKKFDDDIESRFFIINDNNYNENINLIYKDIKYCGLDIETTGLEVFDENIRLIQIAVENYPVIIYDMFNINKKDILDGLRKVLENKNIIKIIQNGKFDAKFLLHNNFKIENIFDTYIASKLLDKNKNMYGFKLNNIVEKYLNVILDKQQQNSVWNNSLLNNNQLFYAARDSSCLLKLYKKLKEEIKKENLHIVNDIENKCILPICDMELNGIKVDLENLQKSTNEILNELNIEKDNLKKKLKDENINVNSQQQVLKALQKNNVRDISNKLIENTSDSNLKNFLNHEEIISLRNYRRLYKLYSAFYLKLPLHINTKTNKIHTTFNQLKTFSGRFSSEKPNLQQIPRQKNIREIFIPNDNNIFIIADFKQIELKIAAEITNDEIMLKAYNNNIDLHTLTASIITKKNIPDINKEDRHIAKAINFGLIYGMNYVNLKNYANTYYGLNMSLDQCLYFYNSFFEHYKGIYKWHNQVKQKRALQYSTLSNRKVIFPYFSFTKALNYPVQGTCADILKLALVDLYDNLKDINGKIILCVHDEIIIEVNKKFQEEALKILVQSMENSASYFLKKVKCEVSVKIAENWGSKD
Experiment: Fluorescence-based high-throughput DNA polymerase assay (molecular beacon), primary screen and dose-response;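 further: compound concentration given in µM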
Assay type: biochemical
Conditions: DRC-2; concentration 40; 40'
Provide the reading as a plain figure in %.

Example entries and their recorded answers appear below.
O=C(O)c1nc(-c2ccccc2)nc2c1OCO2 [Molecule 45, OC(=O)c1nc(nc2c1OCO2)c1ccccc1] ... 69
Cc1cc(C)nc(Nc2nc(CC(=O)Nc3nc(-c4ccco4)cs3)cs2)n1 [Molecule 92] ... 65
Cc1ccnc(NS(=O)(=O)c2ccc(-n3cccc3)cc2)n1 [KU0034899] ... 73
Cc1ccc(C2=N/C(=C\c3ccc(I)o3)C(=O)O2)cc1[N+](=O)[O-] [KU0073890] ... 73

% inhibition Apol 40' for O=C1c2ccccc2C(=O)c2c1oc1c3c(ccc21)OCN(C1CCCC1)C3 [KU0064306] ?
62

Try O=C(Cn1ccc2c(=O)[nH]ccc21)Nc1ccccc1Cl [Molecule 19, O=C(Cn1ccc2c1cc[nH]c2=O)Nc1ccccc1Cl] next.
65

Okay, and O=[N+]([O-])c1ccc(SCc2ccco2)c2cccnc12 [KU0034480] ?
72
